- TESTED_ON: T1, human podocalyxin (human, UniProt O00592 23-558)
- T1 construct: also called hPodo; hPodocalyxin
- T1 sequence: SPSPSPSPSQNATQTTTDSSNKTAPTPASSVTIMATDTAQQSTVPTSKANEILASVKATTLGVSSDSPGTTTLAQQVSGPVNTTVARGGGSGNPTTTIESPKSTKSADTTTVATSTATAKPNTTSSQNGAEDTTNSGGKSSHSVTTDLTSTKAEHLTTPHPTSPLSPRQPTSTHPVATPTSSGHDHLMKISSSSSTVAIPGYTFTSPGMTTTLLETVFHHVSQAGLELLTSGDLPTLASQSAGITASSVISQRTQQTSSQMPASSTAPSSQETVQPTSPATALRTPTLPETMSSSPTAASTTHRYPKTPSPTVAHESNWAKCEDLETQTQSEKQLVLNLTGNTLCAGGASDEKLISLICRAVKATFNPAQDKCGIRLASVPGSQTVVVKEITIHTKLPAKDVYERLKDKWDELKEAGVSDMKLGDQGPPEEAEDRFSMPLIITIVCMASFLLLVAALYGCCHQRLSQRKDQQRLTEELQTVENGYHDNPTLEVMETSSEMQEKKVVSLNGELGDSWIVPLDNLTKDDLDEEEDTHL
- TEST_NAME: flow cytometry, supernatant Neat, MDA-MB-231 cells
VALUE_TYPE: flow cytometry fluorescence (name not given)
Number, no unit, nothing else.

**Q:** Return value of flow cytometry fluorescence (name not given) for input Rb VH, Vk 1:1 (Podo 83 rabbit VH, human CH1-CH3, human Ck, and humanized Vk) (antibody, V domains shown, Human CH1-CH3 and human Ck) VH: QSLAESGGRLVTPGTPLTLTCTASGIDLSSYAMGWVRQAPGKGLEYIGFIYASGSIFYASWAKGRFTISKTSSTTVDLKMTSLTTEDTATYFCARAGYYFGGNYDLNLWGQGTLVTVSS VL: DIQMTQSPSSLSASVGDRVTITCQASQSISNYLAWYQQKPGKVPKLLIYRASTLASGVPSRFSGSGSGTDFTLTISSLQPEDVATYYCQQGYVSNNLDNIFGGGTEVVVK , no commentary.
**A:** 130000

Values compiled from patent US20190367606A1.
